assay: Antioxidant activity assessed as inhibition of DPPH radical generation at 3 mg/ml after 20 mins under dark condition by UV-Visible spectrophotometric analysis relative to control; type: functional
Could you label it y if measured inhibition is 30% or higher, and n otherwise?

In [3]: df
Out[3]:
                                   compound  category
0  CC(=O)c1ccc(NC(=O)C(Cc2ccccc2)N(C(=O)c2ccccc2)S(=O)(=O)c2ccc(C)cc2)cc1 (stereo unspecified)         y
1  CC(=O)c1ccc(NC(=O)C2CCCN2S(=O)(=O)c2ccc([N+](=O)[O-])cc2)cc1 (stereo unspecified)         n
2  CC(=O)c1ccc(NC(=O)C(CC(C)C)N(C(=O)c2ccccc2)S(=O)(=O)c2ccc(C)cc2)cc1 (stereo unspecified)         y
3  CC(=O)c1ccc(NC(=O)C2CCCN2S(=O)(=O)c2ccc(C)cc2)cc1 (stereo unspecified)         n
4  CC(=O)c1ccc(NC(=O)C(CC(C)C)N(C(=O)c2ccccc2)S(=O)(=O)c2ccc([N+](=O)[O-])cc2)cc1 (stereo unspecified)         y
5  CC(=O)c1ccc(NC(=O)C(CC(C)C)N(C(=O)c2ccccc2)S(=O)(=O)c2ccccc2)cc1 (stereo unspecified)         y
6  CC(=O)c1ccc(NC(=O)C(Cc2ccccc2)N(C(=O)c2ccccc2)S(=O)(=O)c2ccc([N+](=O)[O-])cc2)cc1 (stereo unspecified)         y
7  CC(=O)c1ccc(NC(=O)C2CC(O)CN2S(=O)(=O)c2ccc([N+](=O)[O-])cc2)cc1 (stereo unspecified)         y
8  CC(=O)c1ccc(NC(=O)CN(C(=O)c2ccccc2)S(=O)(=O)c2ccccc2)cc1         y
